Kindly supply the reported pIC50 values for the records listed here.
Biological target: hmGluR1 receptor (Homo sapiens)
Construct: expressed in transfected cells
Sequence (Q13255 19-1194): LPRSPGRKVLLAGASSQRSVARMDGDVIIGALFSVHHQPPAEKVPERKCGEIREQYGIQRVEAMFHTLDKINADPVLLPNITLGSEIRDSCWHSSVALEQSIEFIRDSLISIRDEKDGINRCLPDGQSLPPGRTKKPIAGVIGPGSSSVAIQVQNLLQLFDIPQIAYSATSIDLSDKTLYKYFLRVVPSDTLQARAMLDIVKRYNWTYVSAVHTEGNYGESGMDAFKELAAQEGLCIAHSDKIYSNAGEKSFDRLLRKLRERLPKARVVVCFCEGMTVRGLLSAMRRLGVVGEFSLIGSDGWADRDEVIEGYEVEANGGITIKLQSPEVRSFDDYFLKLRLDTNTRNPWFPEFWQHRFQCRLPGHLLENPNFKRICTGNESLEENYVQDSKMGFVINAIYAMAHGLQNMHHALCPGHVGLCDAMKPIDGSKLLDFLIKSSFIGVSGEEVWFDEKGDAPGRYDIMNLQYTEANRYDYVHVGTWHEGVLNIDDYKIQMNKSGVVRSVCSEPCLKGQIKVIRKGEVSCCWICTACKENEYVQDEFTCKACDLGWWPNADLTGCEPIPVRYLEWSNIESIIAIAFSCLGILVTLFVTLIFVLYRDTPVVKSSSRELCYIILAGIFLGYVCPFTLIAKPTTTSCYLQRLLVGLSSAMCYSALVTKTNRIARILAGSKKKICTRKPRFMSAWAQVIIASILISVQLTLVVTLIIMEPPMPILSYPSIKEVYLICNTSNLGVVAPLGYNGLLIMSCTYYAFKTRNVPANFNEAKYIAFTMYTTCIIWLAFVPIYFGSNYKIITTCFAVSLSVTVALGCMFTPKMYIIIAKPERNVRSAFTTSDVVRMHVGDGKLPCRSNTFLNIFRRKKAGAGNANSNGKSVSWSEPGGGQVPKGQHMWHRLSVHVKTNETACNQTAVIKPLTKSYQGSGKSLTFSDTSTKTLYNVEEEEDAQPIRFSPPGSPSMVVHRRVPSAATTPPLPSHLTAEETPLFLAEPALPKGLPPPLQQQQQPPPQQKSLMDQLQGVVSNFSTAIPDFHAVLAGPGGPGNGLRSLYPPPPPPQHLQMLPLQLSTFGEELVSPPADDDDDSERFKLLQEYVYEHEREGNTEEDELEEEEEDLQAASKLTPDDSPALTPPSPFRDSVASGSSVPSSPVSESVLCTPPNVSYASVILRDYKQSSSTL
Assay: IC50 determination: intracellular calcium mobilization (FLIPR) upon Quisqualate stimulation in CHO cells stably expressing hmGluR1
Assay type: cell-based
Details: against Quisqualate 1 μM (EC80), FLIPR calcium mobilization, read-out: IC50 Class
pIC50: −log10 of the molar value.

Here's what some known entries look like.
1) COc1ccc(-n2cnc3c(sc4nccc(NCC(F)(F)F)c43)c2=O)c(F)c1 [28BM] | 6.82 to 7.30
2) C=C(C)CNc1ncnc2sc3c(=O)n(-c4ccc(C)cc4)cnc3c12 [95EY] | > 7.30

Consider the compound shown here: CCN(C)c1ccnc2sc3c(=O)n(-c4ccc5occc5c4)cnc3c12 [28BU] What is its recorded pIC50? > 7.30

All figures here come from patent US7989464B2.
